Biological target: recombinant Top1 (Homo sapiens)
Sequence (P11387 1-765): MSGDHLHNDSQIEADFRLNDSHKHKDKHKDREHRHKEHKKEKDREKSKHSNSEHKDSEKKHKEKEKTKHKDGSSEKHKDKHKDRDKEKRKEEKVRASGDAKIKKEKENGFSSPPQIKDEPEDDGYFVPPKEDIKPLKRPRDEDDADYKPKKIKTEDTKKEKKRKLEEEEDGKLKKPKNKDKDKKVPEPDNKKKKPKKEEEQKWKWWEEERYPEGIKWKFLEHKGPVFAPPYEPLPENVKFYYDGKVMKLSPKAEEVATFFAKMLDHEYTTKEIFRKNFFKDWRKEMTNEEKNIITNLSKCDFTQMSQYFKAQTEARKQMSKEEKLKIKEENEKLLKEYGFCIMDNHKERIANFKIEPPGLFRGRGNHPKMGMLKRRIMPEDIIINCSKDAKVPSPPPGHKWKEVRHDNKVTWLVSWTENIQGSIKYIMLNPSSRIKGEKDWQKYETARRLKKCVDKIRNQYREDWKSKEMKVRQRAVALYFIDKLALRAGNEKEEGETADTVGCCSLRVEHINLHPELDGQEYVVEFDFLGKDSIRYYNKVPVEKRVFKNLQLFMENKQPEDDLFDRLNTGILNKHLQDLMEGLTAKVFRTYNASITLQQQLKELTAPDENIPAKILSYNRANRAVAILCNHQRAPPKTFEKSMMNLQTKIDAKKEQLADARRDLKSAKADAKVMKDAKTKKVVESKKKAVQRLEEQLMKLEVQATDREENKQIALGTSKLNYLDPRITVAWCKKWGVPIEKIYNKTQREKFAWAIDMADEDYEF
Test: Top1-mediated DNA cleavage assay
Format: biochemical
Settings: score relative to 1 μM camptothecin (1); tested at 0.1, 1, 10, 100 μM
readout-name: Top1 Cleavage

O=C1c2cc3c(cc2-c2c1c1ccc(F)cc1c(=O)n2C[C@H](O)CO)OCO3 ... ++++
